test system: MUC1-fs; experiment: Immunofluorescence imaging of MUC1-fs in P cells (Example 2); assay type: cell-based; settings: 48 hr incubation, MUC1-fs, read-out: EC50

>  <Compound>
CC1(CC2CC2)C2CCC(C2)C1N.Cl (racemic) [Compound 243-A, hydrochloride]

>  <EC50>
> 16 µM

$$$$
>  <Compound>
CC(=O)OC1CC2(CC1OC(C)=O)C1CCC(C1)C2N.Cl (racemic) [Compound 230, diacetate hydrochloride]

>  <EC50>
> 16 µM

$$$$
>  <Compound>
CC[C@]1(Cc2ccccc2)[C@@H]2CC[C@@H](C2)[C@@H]1N [Compound 222-P2]

>  <EC50>
> 16 µM

$$$$
>  <Compound>
CC[C@]1(Cc2ccccc2)[C@H]2CC[C@H](C2)[C@H]1N.Cl [Compound 219-P1, hydrochloride]

>  <EC50>
> 16 µM

$$$$
>  <Compound>
Cl.NCC1CCCC2(C1)C1CCC(C1)C2N (racemic) [Compound 221, hydrochloride]

>  <EC50>
> 16 µM

$$$$
>  <Compound>
Cl.NC(=O)C1CCCC2(C1)C1CCC(C1)C2N (racemic) [Compound 224, hydrochloride]

>  <EC50>
> 16 µM

$$$$
